- target_desc: mu opioid receptor (MOR) (Homo sapiens)
- test_description: Hit Hunter cAMP signaling assay (adenylyl cyclase inhibition), PAM mode with EC20 endomorphin-1
- Type: cell-based
- measurement_setup: cAMP EC50, adenylyl cyclase inhibition
Some compounds, each annotated with its measured EC50.

Some entries whose results are on file:
QUERY: Form field: reported EC50 of Cc1ccc(C(F)(F)F)cc1C1CCCCN1c1nc(Cl)ncc1F (stereo not shown) [compound 134]
RESULT: > 2100 nM

QUERY: Form field: reported EC50 of COc1ccc(C2CCCCN2S(=O)(=O)c2ccc(Cl)cc2)cc1Br (single isomer, unassigned) [compound 6]
RESULT: < 700 nM

QUERY: Form field: reported EC50 of Fc1cnc(Cl)nc1N1CCCCC1c1cnc2cccnn12 (stereo not shown) [compound 337]
RESULT: < 700 nM

QUERY: Form field: reported EC50 of Fc1ncc(F)c(N2CCCCC2c2cccc(C(F)(F)F)c2)n1 (stereo not shown) [compound 368]
RESULT: < 700 nM

QUERY: Form field: reported EC50 of Fc1cc(Cl)cc(CN2CCCCC2c2cccc(C(F)(F)F)n2)c1 (stereo not shown) [compound 164]
RESULT: < 700 nM

New cases:
QUERY: Form field: reported EC50 of Fc1cnc(Cl)nc1N1CCC(F)CC1c1cccc(C(F)(F)F)c1 (stereo not shown) [compound 197]
RESULT: 700 to 2100 nM

====

- target_desc: MOR (Homo sapiens)
- Sequence (P35372 whole entry): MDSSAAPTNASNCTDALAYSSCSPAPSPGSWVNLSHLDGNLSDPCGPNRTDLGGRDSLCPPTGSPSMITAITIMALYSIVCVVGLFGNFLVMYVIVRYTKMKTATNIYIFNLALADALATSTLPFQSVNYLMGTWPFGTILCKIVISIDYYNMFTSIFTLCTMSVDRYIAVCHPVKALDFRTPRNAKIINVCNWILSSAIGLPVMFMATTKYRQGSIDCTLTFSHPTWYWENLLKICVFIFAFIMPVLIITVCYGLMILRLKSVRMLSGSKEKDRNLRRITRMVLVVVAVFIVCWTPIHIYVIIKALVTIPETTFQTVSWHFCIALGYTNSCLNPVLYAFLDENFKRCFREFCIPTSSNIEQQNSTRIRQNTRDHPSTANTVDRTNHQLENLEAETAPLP
- test_description: cell-based
- measurement_setup: β-arrestin; EC20 morphine agonism of MOR
Mark Met only for Max. Response values smaller than 400; exact matches and larger values are Not met.

A selection of reference data follows.
QUERY: Max. Response strictly < 400 for this molecule? Fc1cnc(Cl)nc1N1CCCCC1c1cccc(C(F)(F)F)c1 (single isomer, unassigned) [compound 8]
RESULT: Not met

QUERY: Max. Response strictly < 400 for this molecule? Fc1cnc(Cl)nc1N1CCCCC1c1cccc(C(F)(F)F)c1 (single isomer, unassigned) [compound 9]
RESULT: Not met

QUERY: Max. Response strictly < 400 for this molecule? COc1ccc(C2CCCCN2S(=O)(=O)c2ccc(Cl)cc2)cc1Br (single isomer, unassigned)
RESULT: Not met

New cases:
QUERY: Max. Response strictly < 400 for this molecule? Fc1cnc(Cl)nc1N1CCCCC1c1cccc(C(F)(F)F)n1 (centres unmarked)
RESULT: Met

QUERY: Max. Response strictly < 400 for this molecule? Fc1ccc(Cl)cc1CN1CCCCC1c1cccc(C(F)(F)F)n1 (centres unmarked)
RESULT: Met

====

Some compounds, each annotated with its measured EC50.
- target_desc: mu opioid receptor (MOR) (Homo sapiens, UniProt P35372)
- test_description: Hit Hunter cAMP signaling assay (adenylyl cyclase inhibition), PAM mode with EC20 endomorphin-1
- Format: cell-based
- measurement_setup: RC50, cAMP; EC20 EM-1 agonism of MOR
Form field: result (number plus unit)

QUERY: Form field: reported EC50 of Fc1cnc(Cl)nc1N1CCCCC1c1cccc(C(F)(F)F)c1 (single isomer, unassigned) [compound 8]
RESULT: 840 nM

QUERY: Form field: reported EC50 of COc1ccc(C2CCCCN2S(=O)(=O)c2ccc(Cl)cc2)cc1Br (single isomer, unassigned) [compound 6]
RESULT: 500 nM

QUERY: Form field: reported EC50 of Fc1ccc(Cl)cc1CN1CCCCC1c1cccc(C(F)(F)F)n1 (stereo not shown) [compound 2]
RESULT: 570 nM

New cases:
QUERY: Form field: reported EC50 of Fc1cnc(Cl)nc1N1CCCCC1c1cccc(C(F)(F)F)n1 (stereo not shown) [compound 123]
RESULT: 590 nM

====

- target_desc: UniProtKB P35372
- test_description: Hit Hunter cAMP signaling assay (adenylyl cyclase inhibition), PAM mode with EC20 endomorphin-1
- Format: cell-based
- measurement_setup: maximal response for adenylyl cyclase inhibition, Table 3
reported_endpoint: cAMP Max Resp.

Some entries whose results are on file:
QUERY: Form field: reported cAMP Max Resp. of Fc1ccc(C2CCCCN2Cc2cccc(Cl)n2)cc1Cl (stereo not drawn)
RESULT: 63

QUERY: Form field: reported cAMP Max Resp. of O=S(=O)(c1ccc(Cl)cc1)N1CCCCC1c1ccc2c(c1)OCO2 (stereo not drawn)
RESULT: 57

QUERY: Form field: reported cAMP Max Resp. of [2H]C1(c2cccc(C(F)(F)F)c2)C(F)CCCN1c1nc(Cl)ncc1F (stereo not drawn)
RESULT: 34

New cases:
QUERY: Form field: reported cAMP Max Resp. of Fc1ccc(Cl)cc1CN1CCCCC1c1cccc(C(F)(F)F)n1 (stereo not drawn)
RESULT: 85

QUERY: Form field: reported cAMP Max Resp. of COc1ccc(C2CCCCN2S(=O)(=O)c2ccccc2)cc1Br (stereo not drawn)
RESULT: 43

QUERY: Form field: reported cAMP Max Resp. of CC1CCN(S(=O)(=O)c2ccc(Cl)cc2)C1c1ccc(F)c(C(F)(F)F)c1 (mixture of isomers)
RESULT: 25

====

Some compounds, each annotated with its measured EC50.
- target_desc: mu opioid receptor (MOR) (Homo sapiens, UniProt P35372)
- test_description: PathHunter β-arrestin recruitment assay, PAM mode with EC20 endomorphin-1
- Type: cell-based
- measurement_setup: β-arrestin recruitment; read-out: β-arr. EC50

QUERY: Form field: reported EC50 of COc1ccc(C2CCCCN2c2nc(Cl)ncc2F)cc1C(F)(F)F (stereo not drawn) [compound 289]
RESULT: 700 to 2100 nM

QUERY: Form field: reported EC50 of CC1CCN(S(=O)(=O)c2ccc(Cl)cc2)C1c1ccc(Cl)c(C(F)(F)F)c1 (mixture of isomers) [Compound 87]
RESULT: > 2100 nM

QUERY: Form field: reported EC50 of O=S(=O)(c1cc(F)ccc1F)N1CCCCC1c1cccc(C(F)(F)F)c1 (stereo not drawn) [Compound 26]
RESULT: > 2100 nM

QUERY: Form field: reported EC50 of COc1ccc(C2CCCCN2c2nc(Cl)c(C#N)cc2F)cc1Br (stereo not drawn) [compound 449]
RESULT: > 2100 nM

QUERY: Form field: reported EC50 of COc1ccc(C2C(C)CCCN2c2nc(Cl)ncc2F)cc1Br (stereo not drawn) [compound 249]
RESULT: > 2100 nM

====

- target_desc: mu opioid receptor (MOR) (Homo sapiens)
- test_description: PathHunter β-arrestin recruitment assay, PAM mode with EC20 endomorphin-1
- Format: cell-based
- measurement_setup: β-arrestin recruitment; read-out: β-arr. EC50
pEC50: −log10 of the molar value.
Some compounds, each annotated with its measured pEC50.

QUERY: Form field: reported pEC50 of Fc1cc(C2CC(F)CN2c2nc(Cl)ncc2F)cc(C(F)(F)F)c1 (centres unmarked)
RESULT: < 5.68

QUERY: Form field: reported pEC50 of O=S(=O)(c1ccc(Cl)cc1)N1CCCCC1c1ccc(Cl)c(Br)c1 (racemic)
RESULT: < 5.68

QUERY: Form field: reported pEC50 of COc1ccc(C2C(C(F)(F)F)CCN2S(=O)(=O)c2ccc(Cl)cc2)cc1Br (mixture of isomers) [Compound 90]
RESULT: < 5.68

QUERY: Form field: reported pEC50 of COc1ccc(C2C(C(F)(F)F)CCN2S(=O)(=O)c2ccc(Cl)cc2)cc1Br (single isomer, unassigned) [Compound 117]
RESULT: < 5.68

QUERY: Form field: reported pEC50 of Fc1ccc(Cl)nc1N1CCCCC1c1ccc(C(F)(F)F)nc1 (centres unmarked)
RESULT: > 6.15

QUERY: Form field: reported pEC50 of COc1ccc(C2CCCCN2c2cncc(Cl)n2)cc1Br (centres unmarked)
RESULT: < 5.68

New cases:
QUERY: Form field: reported pEC50 of Fc1cc(C2CCCCCN2c2nc(Cl)ncc2F)cc(C(F)(F)F)c1 (centres unmarked)
RESULT: < 5.68

QUERY: Form field: reported pEC50 of Fc1cnc(Cl)nc1N1CCCCC1c1cccc(C(F)(F)F)c1 (single isomer, unassigned) [compound 9]
RESULT: > 6.15

QUERY: Form field: reported pEC50 of Fc1cnc(Cl)nc1N1CCCCC1c1cnc2ccccn12 (centres unmarked)
RESULT: > 6.15

QUERY: Form field: reported pEC50 of Oc1ncnc(N2CCCCC2c2cccc(C(F)(F)F)c2)c1F (centres unmarked)
RESULT: > 6.15

QUERY: Form field: reported pEC50 of CC(=O)N1CCN(c2nc(Cl)ncc2F)C(c2cc(F)cc(C(F)(F)F)c2)C1 (racemic)
RESULT: < 5.68

QUERY: Form field: reported pEC50 of Fc1ccc(C2COCCN2c2nc(Cl)ncc2F)cc1Cl (racemic)
RESULT: 5.68 to 6.15

QUERY: Form field: reported pEC50 of Cc1ccc(C2CCCCN2S(=O)(=O)c2ccc(Cl)cc2)cc1Br (racemic)
RESULT: < 5.68

QUERY: Form field: reported pEC50 of [O-][S+]1CCN(c2nc(Cl)ncc2F)C(c2cc(F)cc(C(F)(F)F)c2)C1 (mixture of isomers)
RESULT: < 5.68

QUERY: Form field: reported pEC50 of Fc1ccc(Cl)nc1N1CCCCC1c1cccc(C(F)(F)F)c1 (centres unmarked)
RESULT: 5.68 to 6.15

QUERY: Form field: reported pEC50 of O=c1[nH]c2ccc(C3CCCCN3c3nc(Cl)ncc3F)cc2o1 (centres unmarked)
RESULT: < 5.68

QUERY: Form field: reported pEC50 of [2H]C1(c2cccc(C(F)(F)F)c2)C(F)CCCN1c1nc(Cl)ncc1F (single isomer, unassigned) [compound 208]
RESULT: < 5.68

Every entry's value here was drawn from patent US11071731B2.
